TESTED_SYSTEM: Nuclear receptor subfamily 1 group I member 2 (Homo sapiens)
Sequence (O75469 whole entry): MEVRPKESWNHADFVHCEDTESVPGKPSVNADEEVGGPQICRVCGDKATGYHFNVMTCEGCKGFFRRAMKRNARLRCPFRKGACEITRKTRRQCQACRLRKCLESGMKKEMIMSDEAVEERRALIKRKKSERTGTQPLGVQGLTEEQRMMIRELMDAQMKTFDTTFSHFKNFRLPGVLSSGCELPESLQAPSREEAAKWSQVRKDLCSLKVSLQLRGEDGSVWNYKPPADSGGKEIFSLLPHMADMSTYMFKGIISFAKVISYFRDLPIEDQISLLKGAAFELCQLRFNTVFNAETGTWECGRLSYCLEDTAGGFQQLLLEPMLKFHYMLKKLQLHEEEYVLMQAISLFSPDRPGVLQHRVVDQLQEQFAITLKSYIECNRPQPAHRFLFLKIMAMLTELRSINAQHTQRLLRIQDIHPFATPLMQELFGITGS
TEST_NAME: Activation of PXR (unknown origin)
MEASURE: EC50 (µM)

>  <MOLECULE>
[2H]C([2H])([2H])N(C(=O)c1c(F)cccc1Cl)c1ccc(-c2cc(NC(C)=O)nn2C(C)C)cc1N1CC2CC2C1 (stereo unspecified)

>  <MEASURE>
EC50

>  <U>
µM

>  <QUANTITATIVE_READOUT>
9.9

$$$$

A = [2H]C([2H])([2H])N(C(=O)c1c(F)cccc1Cl)c1ncc(-c2cc(NC(C)=O)nn2C(C)C)cc1N1CC2CC2C1 (stereo unspecified)
B = CC(=O)Nc1cc(-c2cnc(N(C)C(=O)c3c(F)cccc3Cl)c(N3CCCCC3)c2)n(C(C)C)n1
C = [2H]C([2H])([2H])N(C(=O)c1c(F)cccc1Cl)c1ccc(-c2cc(NC(C)=O)nn2CC2CC2)cc1N1CC2CC2C1 (stereo unspecified)
Put the items in order so that reported EC50 rises from first to last. Labels, ranked as asked.
A, B, C

* * *

TEST_NAME: Percentage unbound in human plasma
Format: ADME, cell-free
MEASURE: fraction unbound

>  <COMPOUND>
[2H]C([2H])([2H])N(C(=O)c1c(F)cccc1Cl)c1ccc(-c2cc(NC(C)=O)nn2CC2CC2)cc1N1CC2CC2C1 (stereo not given)

>  <MEASURE>
fraction unbound

>  <QUANTITATIVE_READOUT>
0.005

$$$$

1 = CC(=O)Nc1nc(C(C)C)c(-c2cnc(N(C)C(=O)c3c(F)cccc3Cl)c(N3CCCCC3)c2)s1
2 = [2H]C([2H])([2H])N(C(=O)c1c(F)cccc1Cl)c1ccc(-c2cc(NC(C)=O)nn2C2CCCC2)cc1N1CC2CC2C1 (stereo not given)
3 = [2H]C([2H])([2H])N(C(=O)c1c(C)cccc1F)c1ccc(-c2cc(NC(C)=O)nn2C(C)C)cc1N1CC2CC2C1 (stereo not given)
4 = CC(=O)Nc1cc(-c2cnc(N(C)C(=O)c3c(F)cccc3Cl)c(N3CCCCC3)c2)n(C(C)C)n1
hey, can you rank those compounds up there by fraction unbound? biggest number first please Output the labels ranked as instructed.
4, 3, 1, 2

a = [2H]C([2H])([2H])N(C(=O)c1c(F)cccc1Cl)c1ccc(-c2cc(NC(C)=O)nn2C(C)C)cc1-c1ccccc1
b = [2H]C([2H])([2H])N(C(=O)c1c(F)cccc1Cl)c1ncc(-c2cc(NC(C)=O)nn2C(C)C)cc1N1CC2CC2C1 (stereo not given)
Field: lower recorded fraction unbound (choose a or b ) Selection: enter the item's label.
a

* * *

TEST_NAME: Percentage unbound in rat plasma
Format: ADME, cell-free
MEASURE: fraction unbound

Sample records with fraction unbound:
>  <COMPOUND>
[2H]C([2H])([2H])N(C(=O)c1c(F)cccc1Cl)c1ccc(-c2cc(NC(C)=O)nn2CC2CC2)cc1N1CC2CC2C1 (stereo not drawn)

>  <fraction unbound>
0.002

$$$$
>  <COMPOUND>
CC(=O)Nc1nc(C(C)C)c(-c2cnc(N(C)C(=O)c3c(F)cccc3Cl)c(N3CCCCC3)c2)s1

>  <fraction unbound>
0.002

$$$$

A = [2H]C([2H])([2H])N(C(=O)c1c(Cl)cccc1Cl)c1ccc(-c2cc(NC(C)=O)nn2C(C)C)cc1N1CC2CC2C1 (stereo not drawn)
B = [2H]C([2H])([2H])N(C(=O)c1c(F)cccc1Cl)c1ncc(-c2cc(NC(C)=O)nn2C(C)C)cc1N1CC2CC2C1 (stereo not drawn)
C = CC(=O)Nc1cc(-c2ccc(N(C)C(=O)c3c(F)cccc3Cl)c(N3CC4CC4C3)c2)n(C(C)C)n1 (stereo not drawn)
D = CC(=O)Nc1cc(-c2cnc(N(C)C(=O)c3c(F)cccc3Cl)c(N3CCCCC3)c2)n(C(C)C)n1
Please produce an ascending ranking of these compounds based on fraction unbound. In your reply, arrange the labels in the requested order.
A, C, D, B

I = [2H]C([2H])([2H])N(C(=O)c1c(F)cccc1Cl)c1ccc(-c2cc(NC(C)=O)nn2C(C)C)cc1N1CCCCC1
II = [2H]C([2H])([2H])N(C(=O)c1c(C)cccc1F)c1ccc(-c2cc(NC(C)=O)nn2C(C)C)cc1N1CC2CC2C1 (stereo not drawn)
Pick one: I or II . Which has the bigger fraction unbound number? Answer by stating the label of the chosen item.
II

Origin of the recorded values: ChEMBL document CHEMBL3596090
